# assayDetails: protein stability index of a GFP-peptide fusion (yeast GPS) (PSI 1-4); higher = more stable; sorted into four equal gates, so the index is relative within each strain
# details: san1∆
parameter: protein stability index
// response body must contain only the number

seqText: KAPLEDDDKKPDDDKIV [RPT1]
protein stability index: 3.19
//
seqText: ELLSSLEGKGSLEEIIA [RPP2B]
protein stability index: 2.63

Which protein stability index is reported for this sequence? SYQKAWDLLQSGSQNIS [RPN12]
1.2

Which protein stability index is reported for this sequence? LKFNSTEYRGTLVSTDN [SMX3]
2.27

###

# assayDetails: protein stability index of a GFP-peptide fusion (yeast GPS) (PSI 1-4); higher = more stable; sorted into four equal gates, so the index is relative within each strain
# details: doa10∆
Reported protein stability index values for a set of sequences

Examples from the recorded data:
seqText: QHLRNEHGMNAPSVPEF [SNF2]
obsValue: 2.86
//
seqText: IERYPLKVTKKHGAKKV [RPL27A]
obsValue: 3.37
//
seqText: GNPYIELNQDRLGGDDL [SNF5]
obsValue: 3.05
//
seqText: VGRFSTISSADFIQNVG [ECM29]
obsValue: 3.16

Which protein stability index is reported for this sequence? WSEISNELPDIEALYDD [RPN2]
3.49

Which protein stability index is reported for this sequence? QEAIQQNRRLAFEELEG [PRP8]
2.24

Which protein stability index is reported for this sequence? KEDTVSWFKQKYDADVL [RPL11A]
1.5

Which protein stability index is reported for this sequence? VQKILPLSNEVFEISEN [SWI1]
2.13

Which protein stability index is reported for this sequence? KRIKGLEFSALSAADIV [RPO31]
3.09

Which protein stability index is reported for this sequence? RLTKQAFDWVLSNIEAQ [RPO21]
3.2

Which protein stability index is reported for this sequence? KKVLEIDFFKTDDSFED [BRN1]
2.09

Which protein stability index is reported for this sequence? ILGELKRVKSYMDKAKQ [LRP1]
2.23

Which protein stability index is reported for this sequence? DTSGLKISNSEFFNPEI [SIN4]
3.21

Which protein stability index is reported for this sequence? EVAQLGSLACDTADEAK [RPB4]
3.49

Which protein stability index is reported for this sequence? PKYRDNLATWYHSAGGR [SSN3]
2.95

Which protein stability index is reported for this sequence? MVEWLESRSFSPIPFPP [PRP8]
2.52

Which protein stability index is reported for this sequence? DVYSPEKGSWEQLSPQD [BRR2]
3.15

###

# assayDetails: protein stability index of a GFP-peptide fusion (yeast GPS) (PSI 1-4); higher = more stable; sorted into four equal gates, so the index is relative within each strain
# details: ubr1∆
Each record's class is read off its protein stability index using these ranges: bottom range: < 2; center range: ≥ 2 and < 3; top range: ≥ 3

Please review the following examples before continuing.
seqText: FKRNAVFVGTIFAGAFV [QCR9]
qualitativeLabel: bottom range
--
seqText: PGRLDRKIEFPSLRDRR [RPT3]
qualitativeLabel: top range
--
seqText: KAPLEDDDKKPDDDKIV [RPT1]
qualitativeLabel: top range
--
seqText: MCEQALSALFTISSKPD [YCS4]
qualitativeLabel: bottom range
--
seqText: QHLQQLKMQQQQQQQQQ [GAL11]
qualitativeLabel: center range
--
seqText: KSVEKTMIKKTTLVTRR [SMC3]
qualitativeLabel: top range
--
seqText: RTFRLNECVCTPYNADF [RPO31]
qualitativeLabel: center range
--
seqText: TKGENYQLVKTLGEQLI [FAS2]
qualitativeLabel: top range
--
seqText: LTEEELKTRYVGRQDPK [RPN11]
qualitativeLabel: top range
--
seqText: SFYDAIFFNIPLVAHLG [YJL039C/NUP192]
qualitativeLabel: bottom range

Which class holds TVKRGAAGIWTCSCCKK [RPL43A] ?
bottom range

Which class holds PNIRTMSGTTKRLNGKR [SSN2] ?
top range

Which class holds VSLQNFSSSVSLSYMAF [RRP40] ?
bottom range

Which class holds TNDDSIKNLTVQLSPSN [RGR1] ?
center range
